Values compiled from a melting point compilation (Tetko et al.; mined from patent text by program, amines drawn as free bases though some values may be those of a salt).

METRIC: melting point

COMPOUND	melting point
CC1(C)CC(S(=O)(=O)Cc2c(C(F)(F)F)nn(C(F)F)c2Cl)=NO1	126 to 127 °C
COC(C)=CC(=O)Nc1cccc([N+](=O)[O-])c1	187 °C
Nc1ccc([N+](=O)[O-])cc1-c1cc([N+](=O)[O-])ccc1N	315 to 317 °C
CNc1c([N+](=O)[O-])ccc(Cl)c1Cl	82 °C
COC1CCCCC1n1nnc2c([N+](=O)[O-])cccc21 (configuration not stated)	134 to 136 °C

Enquiry: Entry O=S(=O)(CC1CCCC1)c1nc[nH]n1 : reported melting point = ?
Return: 150 to 155 °C

Enquiry: Entry CNC(=O)N(O)C(C)c1ccc(C(F)(F)F)cc1 (configuration not stated) : reported melting point = ?
Return: 124 to 125 °C

Enquiry: Entry O=C(Nc1ccc(Cl)cn1)c1cc(Cl)ccc1NCC1CCN(C2CCCC2)CC1 : reported melting point = ?
Return: 170 to 171 °C

----------
METRIC: melting point

Solved entries:
MOLECULE	VALUE
COc1cc(I)c(C(C)=O)cc1O	109 to 111 °C
COC(=O)/C=C/c1ccc(OCc2nc(-c3ccccc3)oc2C)nc1	116 to 117 °C
CN(C(=O)c1cnc(N2CC(C)(C)NC2=O)nc1N)c1cccc(C(F)(F)F)c1	210 to 211 °C
N#Cc1cnn(-c2nc(Cl)c(C(F)(F)F)cc2Cl)c1Br	121 to 122 °C

Enquiry: Entry COC(CCl)NC(=O)c1ccccc1 (centres undefined) : reported melting point = ?
Return: 76.9 to 77.7 °C

Enquiry: Entry COc1ccc(N2CCOCC2)c2sc(NC(=O)C[C@H]3CC[C@@H](O)CC3)nc12 : reported melting point = ?
Return: 212 to 216 °C

----------
Below, each entry is listed alongside its reported melting point.

Solved entries:
COMPOUND	VALUE
CC(=O)Nc1nccc(Oc2ccc3c(C(=O)Nc4ccc(F)c(C(F)(F)F)c4)cccc3c2)n1	213 to 214 °C
O=C(O)c1ccc(NCc2cccc([N+](=O)[O-])c2)cc1O	189 °C
CC(CC1(c2ccc(Cl)cc2)CCC1)NC=O (centres undefined)	71 to 73 °C
O=C1C2=CC=CCC2C(O)N1CCN1CCC(c2noc3cc(F)ccc23)CC1 (centres undefined)	172 to 173 °C
CS(=O)(=O)N1CCC(NC(=O)N(CCCN2CCC(Cc3ccccc3)CC2)c2ccccc2)CC1	158 to 160 °C

Enquiry: Entry O=C(CCCCCN1CCN(c2cccc(C(F)(F)F)c2)CC1)N1Cc2ccccc2C1 : reported melting point = ?
Return: 100 to 105 °C

Enquiry: Entry CS(=O)(=O)c1ccc(-n2nc(CCCN3C(=O)c4ccccc4C3=O)cc2-c2ccccc2)cc1 : reported melting point = ?
Return: 62.4 to 72.2 °C

Enquiry: Entry CC(C)(C)OC(=O)N[C@H](C(=O)N1CCC[C@H]1C(=O)NC1CCc2nc(N)sc2C1)C(c1ccccc1)c1ccccc1 (some centres undefined) : reported melting point = ?
Return: 127 to 130 °C

Enquiry: Entry CC(C)(C)OC(=O)N[C@@H](Cc1ccccc1)[C@@H](O)[C@@H](NCc1cccc2ccccc12)C(=O)O : reported melting point = ?
Return: 225 to 227 °C

Enquiry: Entry CCCCCc1ccc(NS(=O)(=O)c2ccc(N3CCNC3=O)cc2)cc1 : reported melting point = ?
Return: 207 to 209 °C

----------
Below, each entry is listed alongside its reported melting point.

MOLECULE	VALUE
COCc1ccoc1-c1cccc(-n2c(N)nc3ccccc32)c1	134 to 136 °C
Nc1ccc2c(c1)OCC(CN1CC=C(c3c[nH]c4ccc(F)cc34)CC1)O2 (stereo not drawn)	172 to 174 °C

Enquiry: Entry CCC(=O)Nc1cccc(-c2ccnc3c(C(=O)c4cccs4)cnn23)c1 : reported melting point = ?
Return: 208 to 210 °C

----------
METRIC: melting point

COMPOUND	melting point
O=C1Cc2cc(C(=O)[C@H]3CC[C@H]3C(=O)O)ccc2N1 (relative stereo)	211 to 212 °C

Enquiry: Entry O=C(O)COc1cccc2c1CCc1sc(S(=O)(=O)CCC(c3ccccc3)c3ccccc3)nc1-2 : reported melting point = ?
Return: 175 to 176 °C

Enquiry: Entry COc1ccc(S(=O)(=O)Nc2ccccc2Nc2ccncc2)cc1 : reported melting point = ?
Return: 185 to 187 °C

Enquiry: Entry N#Cc1ccnc(CO)c1 : reported melting point = ?
Return: 92 to 94 °C

Enquiry: Entry c1cn(-c2nc(N3CCOCC3)nc(N3CCOCC3)n2)cn1 : reported melting point = ?
Return: 248 to 250 °C

Enquiry: Entry CN1Cc2c(C(=O)NN)ncn2-c2cccc(Cl)c2C1=O : reported melting point = ?
Return: 287 °C

Enquiry: Entry O[C@H]1COC(c2ccc3c(c2)OCO3)=N[C@@H]1c1ccccc1 (racemic) : reported melting point = ?
Return: 137 °C

Enquiry: Entry CC(=O)c1ccc(C2=CCCCCC2)cc1 : reported melting point = ?
Return: 36 to 38 °C

Enquiry: Entry CN(C)CCNC(=O)Cc1ccc(NC(=O)Cc2ccc([N+](=O)[O-])cc2)cc1 : reported melting point = ?
Return: 160 to 162 °C

----------
METRIC: melting point

Solved entries:
MOLECULE	METRIC	VALUE
CC1(C)Cc2cccc(OCC3CO3)c2O1 (stereo not given)	melting point	51 to 52 °C
O=C(N[C@H](CCCO)c1nc(-c2ccccc2)c(-c2ccccc2)o1)OCc1ccccc1	melting point	72.3 to 75.1 °C
Cc1ncccc1[N+](=O)[O-]	melting point	29 to 31 °C
COc1ccc(CCn2ccn(C3CCc4ccccc4C3)c2=S)cc1OC (stereo not given)	melting point	97 to 101 °C

Enquiry: Entry c1ccc(-c2n[nH]c3c2sc2ccccc23)cc1 : reported melting point = ?
Return: 236 to 238 °C

Enquiry: Entry COc1cc(OC)c(-c2cccs2)cc1/C=C/C(=O)c1ccc(S(=O)(=O)Nc2ccc(C(F)(F)F)cn2)cc1 : reported melting point = ?
Return: 228 to 229 °C

----------
Below, each entry is listed alongside its reported melting point.

Enquiry: Entry COc1ccc(Cl)c2c1CCCC2=O : reported melting point = ?
Return: 46 to 48 °C

----------
Below, each entry is listed alongside its reported melting point.

Enquiry: Entry O=C(NCC12CC3CC(CC(C3)C1)C2)c1cc(-c2ccc(Cl)cc2C(=O)O)ccc1Cl : reported melting point = ?
Return: 207 to 210 °C

Enquiry: Entry O=C(NC1CCCC1)c1ccc(-c2ccc3c(c2)CCN(CCN2CCCC2)C3=O)cc1 : reported melting point = ?
Return: 258 to 260 °C

Enquiry: Entry O=C(NOc1ccc([N+](=O)[O-])cc1)OCCCNC(=O)OC1CCN(C(=O)Oc2ccc(Oc3ccccc3)cc2)CC1 : reported melting point = ?
Return: 97 to 100 °C

Enquiry: Entry CCOC(=O)c1cc(=O)c2c(OCCOc3ccc4c(c3)OCO4)cccc2o1 : reported melting point = ?
Return: 161 to 162 °C

Enquiry: Entry C[C@@H](C(=O)O)N(C(=O)[C@@H]1CS[C@H](c2ccccc2O)N1C(=O)CCSC(=O)c1ccccc1)c1ccccc1 : reported melting point = ?
Return: 95 to 100 °C

----------
METRIC: melting point

COMPOUND	melting point
c1ccc(N2CCOCC2)c(N=C2NCCN2)c1	185 to 186 °C
CC12CCC(C(=O)N(CCCCN3CCN(c4ncccn4)CC3)C1=O)C2(C)C (stereo unspecified)	92 to 94 °C

Enquiry: Entry CCOC(=O)N1C(=O)OC(c2c(Cl)cccc2OC)C1=O (stereo unspecified) : reported melting point = ?
Return: 196 to 200 °C

Enquiry: Entry COc1cc(C(=O)NCCc2ccccc2)cc([N+](=O)[O-])c1OC : reported melting point = ?
Return: 121 to 122 °C

----------
Below, each entry is listed alongside its reported melting point.

Solved entries:
COMPOUND	melting point
CCCCS(=O)(=O)Oc1c(C(=O)OC(C)C)sc(C(=O)OC(C)C)c1C	59 to 61 °C
COC(=O)C1=C(C)NC(=O)N(C(=O)Oc2ccc([N+](=O)[O-])cc2)C1c1ccc(F)c(F)c1 (stereo unspecified)	185 to 186 °C
CCOC(=O)C(=O)NS(=O)(=O)Cc1nc(-c2ccc(Cl)c(Cl)c2)cs1	180 to 182 °C
COc1cc(-c2ncc(Cl)cc2F)c(F)cc1Cl	120 to 122 °C
Fc1ccc(-c2ccc3[nH]c4c(ccc5cc[nH]c54)c3c2)cc1	> 250 °C
O=C(Cc1ccc(F)cc1)N1C(=O)OC[C@@H]1Cc1ccccc1	64 to 66 °C
C[C@@H]1S[C@@H](C(=O)Nc2ccc(CN3CCSC3)cc2)Cc2cc3c(cc2C1=O)OCO3	179 to 181 °C
CC(=O)c1nn[nH]c1-c1ccccc1	117 to 118 °C

Enquiry: Entry O=c1cc(-c2ccoc2)c2ccc(O)cc2o1 : reported melting point = ?
Return: 229 to 232 °C
